# target.system: UniProt P17931
# Sequence (P17931 whole entry): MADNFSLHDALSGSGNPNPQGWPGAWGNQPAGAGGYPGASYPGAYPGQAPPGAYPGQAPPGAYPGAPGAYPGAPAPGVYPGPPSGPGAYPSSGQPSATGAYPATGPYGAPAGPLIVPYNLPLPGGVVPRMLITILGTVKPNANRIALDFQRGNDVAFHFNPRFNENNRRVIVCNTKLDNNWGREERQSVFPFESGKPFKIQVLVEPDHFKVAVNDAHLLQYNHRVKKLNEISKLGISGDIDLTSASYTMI
# test.summary: Fluorescence anisotropy assay, affinity for galectin-3
# assay.setup: compound as inhibitor of the interaction between galectin and a fluorescein tagged saccharide probe; read-out: Gal-3 Kd
observable: log10(Kd) (log10 of the value in µM)
Form field - Quantity: Kd; Unit: µM; Scale: log10

**Query** So what log10(Kd) did COC1C(n2cc(-c3nc(Cl)cs3)nn2)[C@@H](O)C(CO)O[C@H]1c1ccnn1-c1cc(Cl)cnc1C(F)(F)F (stereo partly shown) get with UniProt P17931?
**Result** -0.19

**Query** Also OCC1O[C@@H](c2ccnn2-c2cc(Br)c(F)cc2C(F)(F)F)C(O)[C@@H](n2cc(-c3nc(Cl)cs3)nn2)[C@H]1O (stereo partly shown) , if possible.
**Result** -0.70

**Query** Can you check C=Cc1cc([C@@H]2OC(CO)[C@H](O)C(n3cc(-c4nc(Cl)cs4)nn3)C2OC)n(-c2cc(Cl)ccc2C(F)(F)F)n1 (stereo partly shown) next?
**Result** -0.32

**Query** Another compound to look at: OCC1O[C@@H](c2ccnn2-c2cc(Cl)ccc2C(F)(F)F)C(O)C(n2cc(-c3nc(Cl)cs3)nn2)[C@H]1O (stereo partly shown)
**Result** -0.37

**Query** Another compound: COC1C(n2cc(-c3nc(Cl)cs3)nn2)[C@@H](O)C(CO)O[C@H]1c1cc(C)nn1-c1cc(Cl)ccc1C(F)(F)F (stereo partly shown)
**Result** -0.54

**Query** Now the same for COC1C(n2cc(-c3nc(Cl)cs3)nn2)[C@@H](O)C(CO)O[C@H]1c1cc(C(=O)O)nn1-c1cc(Cl)ccc1C(F)(F)F (stereo partly shown)
**Result** -0.49

**Query** Same question for COC1C(n2cc(-c3csc(O)n3)nn2)[C@@H](O)C(CO)O[C@H]1c1ccnn1-c1cc(Br)c(F)cc1C(F)(F)F (stereo partly shown) please.
**Result** 0.67

**Query** COC1[C@@H](n2cc(-c3nc(Cl)cs3)nn2)[C@@H](O)C(CO)O[C@H]1c1ccnn1-c1cc(Br)c(F)cc1C(F)(F)F (stereo partly shown) ?
**Result** -0.54

**Query** Continue with OCC1O[C@@H](c2ccnn2-c2cc(Cl)ccc2C(F)(F)F)C(O)C(n2cc(-n3ccc(Cl)n3)nn2)[C@H]1O (stereo partly shown)
**Result** -0.06

**Query** Check Cc1cc([C@@H]2OC(CO)[C@H](O)C(n3cc(-c4nc(Cl)cs4)nn3)C2O)n(-c2cc(Cl)ccc2C(F)(F)F)n1 (stereo partly shown) too.
**Result** -0.43

**Query** Cool, now COC1C(n2cc(-c3csc(N)n3)nn2)[C@@H](O)C(CO)O[C@H]1c1ccnn1-c1cc(Cl)ccc1C(F)(F)F (stereo partly shown)
**Result** 0.83

**Query** Now the compound COC1C(n2cc(-c3nc(Cl)cs3)nn2)[C@@H](O)C(CO)O[C@H]1c1ccnn1-c1cc(Br)cnc1C(F)(F)F (stereo partly shown)
**Result** -0.28

**Query** Also check CCc1cc([C@@H]2OC(CO)[C@H](O)C(n3cc(-c4nc(Cl)cs4)nn3)C2OC)n(-c2cc(Cl)ccc2C(F)(F)F)n1 (stereo partly shown)
**Result** -0.17

**Query** Could you do the same for COC1C(n2cc(-c3nc(Cl)cs3)nn2)[C@@H](O)C(CO)O[C@H]1c1ccnn1-c1cc(Br)ccc1C(F)(F)F (stereo partly shown) , please?
**Result** -0.39

**Query** How about this compound: OCC1O[C@@H](c2ccnn2-c2cc(Cl)ccc2C(F)(F)F)C(O)C(n2cc(-c3csc(O)n3)nn2)[C@H]1O (stereo partly shown)
**Result** 0.77

**Query** And the next one, COC1C(n2cc(-c3nc(Cl)cs3)nn2)[C@@H](O)C(CO)O[C@H]1c1cc(Cl)nn1-c1cc(Cl)ccc1C(F)(F)F (stereo partly shown) ?
**Result** -0.74
